- Experiment: Stability in plasma (half-life)
- Assay type: in vitro ADME, rat or monkey
- Settings: method: 200 μM in plasma, 37°; species of plasma not given

{"Molecule": "CC1=CC[C@@H]2[C@@H](C1)c1c(O)cc(C(C)(C)C(=O)OCCCn3ccnc3)cc1OC2(C)C", "half-life at 200 μM / min": 240}
{"Molecule": "CCCCOC(=O)[C@H](C)c1cc(O)c2c(c1)OC(C)(C)[C@@H]1CC=C(C)C[C@@H]21", "half-life at 200 μM / min": 7}
{"Molecule": "CC1=CC[C@@H]2[C@@H](C1)c1c(O)cc(CC(=O)OCCCCC#N)cc1OC2(C)C", "half-life at 200 μM / min": 4.8}
{"Molecule": "CCCCOC(=O)C(C)(C)c1cc(O)c2c(c1)OC(C)(C)[C@@H]1CC[C@@H](O)C[C@@H]21", "half-life at 200 μM / min": 3}
{"Molecule": "CC1=CC[C@@H]2[C@@H](C1)c1c(O)cc(C(C)(C)C(=O)OCCCCn3ccnc3)cc1OC2(C)C", "half-life at 200 μM / min": 120}
{"Molecule": "CC1=CCC2[C@@H](C1)c1c(O)cc(C(C)(C)C(=O)OCCCCC#N)cc1OC2(C)C (stereo in doubt)", "half-life at 200 μM / min": 40}
{"Molecule": "CCCCCCC(C)(C)c1cc(O)c2c(c1)OC(C)(C)[C@@H]1CCC(=O)OC[C@@H]21", "half-life at 200 μM / min": 15}

----------
- Assay target: UniProtKB P20272
- Experiment: rCB1 competition-equilibrium binding with [3H]CP-55,940, rat brain membranes
- Settings: rat brain membranes, [3H]CP-55,940; read-out: rCB1 Ki
pKi: −log10 of the molar value.
This listing pairs compounds with measured pKi.

{"Compound": "CC1=CC[C@@H]2[C@@H](C1)c1c(O)cc(C(C)C(=O)O)cc1OC2(C)C (stereo partly drawn) [Compound 1.11]", "Assay target": "UniProtKB P20272", "pKi": "< 5.00"}
{"Compound": "CC(C)(C(=O)O)c1cc(O)c2c(c1)OC(C)(C)[C@@H]1CC[C@@H](O)C[C@@H]21 [Compound 3.5]", "Assay target": "UniProtKB P20272", "pKi": "< 5.00"}
{"Compound": "CC1=CC[C@@H]2[C@@H](C1)c1c(O)cc([C@@H](C)C(=O)O)cc1OC2(C)C [Compound 1.13]", "Assay target": "UniProtKB P20272", "pKi": "< 5.00"}

----------
- Assay target: mCB2 receptor (Mus musculus (Mouse), UniProt P47936)
- Experiment: mCB2 competition-equilibrium binding with [3H]CP-55,940, membranes of HEK293 cells expressing mCB2
- Settings: HEK293 cells expressing mCB2, [3H]CP-55,940; read-out: mCB2 Ki
Output rule met for records whose Ki is lower than 2 nM, rule not met for records at or above 2 nM.

{"Smiles structure": "CC(C)(C(=O)O)c1cc(O)c2c(c1)OC(C)(C)[C@@H]1CC=C(CO)C[C@@H]21", "Class": "rule not met"}
{"Smiles structure": "CC1(C)Oc2cc(CC(=O)O)cc(O)c2[C@@H]2CC(=O)CC[C@H]21", "Class": "rule not met"}
{"Smiles structure": "CC(C)(C(=O)O)c1cc(O)c2c(c1)OC(C)(C)[C@@H]1CC[C@H](O)C[C@@H]21", "Class": "rule not met"}
{"Smiles structure": "CC1=CC[C@@H]2[C@@H](C1)c1c(O)cc(C3(C(=O)OCCCCN=[N+]=[N-])CCC3)cc1OC2(C)C", "Class": "rule met"}
{"Smiles structure": "CCCCCNC(=O)C(C)(C)c1cc(O)c2c(c1)OC(C)(C)[C@@H]1CC=C(C)C[C@@H]21", "Class": "rule not met"}
{"Smiles structure": "CCOC(=O)C(C)(C)c1cc(O)c2c(c1)OC(C)(C)[C@@H]1CC=C(C)C[C@@H]21", "Class": "rule met"}
{"Smiles structure": "CCCCOC(=O)Cc1cc(O)c2c(c1)OC(C)(C)[C@@H]1CCC(=O)C[C@@H]21", "Class": "rule not met"}
{"Smiles structure": "CC1=CC[C@@H]2[C@@H](C1)c1c(O)cc(C3(C(=O)OCCCCC#N)CCC3)cc1OC2(C)C", "Class": "rule met"}

----------
- Assay target: hCB2 receptor (Homo sapiens (Human), UniProt P34972)
- Experiment: hCB2 competition-equilibrium binding with [3H]CP-55,940, membranes of HEK293 cells expressing hCB2
- Settings: HEK293 cells expressing hCB2, [3H]CP-55,940; read-out: hCB2 Ki
This listing pairs compounds with measured Ki.

{"Smiles structure": "CC1=CC[C@@H]2[C@@H](C1)c1c(O)cc(C3(C(=O)O)CCC3)cc1OC2(C)C", "Ki": "> 10 µM"}
{"Smiles structure": "CC1(C)Oc2cc(CC(=O)O)cc(O)c2[C@@H]2CC(=O)CC[C@H]21", "Ki": "> 10 µM"}
{"Smiles structure": "CC1=CC[C@@H]2[C@@H](C1)c1c(O)cc(CC(=O)O)cc1OC2(C)C", "Ki": "> 10 µM"}
